Consider the following molecules and their measured cytotoxicity at 10 µM readings.
METHOD_DESCRIPTION: Toxicity liver stage against HepG2, at 10uM
Assay type: cell-based
Parameters: test concentration 10 uM, cell line HepG2-A16-CD81EGFP
DETAILS: human, HepG2-A16-CD81EGFP cells; read-out: INHIBITION

MOLECULE: Cc1cc(C(C)(O)CNC(=O)OC(C)(C)C)c(C)o1 (stereo unspecified)
cytotoxicity at 10 µM, %: 10.5
//
MOLECULE: CCc1ccc(-c2cn3c(C(=O)N[C@H](C(N)=O)[C@@H](C)O)csc3n2)cc1
cytotoxicity at 10 µM, %: 7.69
//
MOLECULE: Cc1cc(NC(=O)CCCn2ccnc2C)nc(C(C)C)n1
cytotoxicity at 10 µM, %: -5.73
//
MOLECULE: Cc1noc(C)c1CN1CC[C@H]2OCC[C@@]2(C(=O)NC2CCCC2)C1
cytotoxicity at 10 µM, %: -75.7
//
MOLECULE: Cc1ccccc1CN(Cc1ccncc1)CC(C)C
cytotoxicity at 10 µM, %: 11.9
//
MOLECULE: CNc1ccnc(N2C[C@@H](C)[C@](O)(C3CC3)C2)n1
cytotoxicity at 10 µM, %: -13.1
//
MOLECULE: O=C(CCc1cc2n(n1)CCCNC2)NCCCSC1CCCCC1
cytotoxicity at 10 µM, %: -5.52
//
MOLECULE: O=C(NCCCn1cncn1)NCC(c1ccco1)N1CCCCC1 (stereo unspecified)
cytotoxicity at 10 µM, %: 0.987
//
MOLECULE: c1cc(CN2CCN(Cc3ccon3)C3(CCCCC3)C2)no1
cytotoxicity at 10 µM, %: -16.7
//
MOLECULE: Cc1cnc(N2C[C@H]3CCCC(N(C)Cc4ccccn4)[C@H]3C2)nc1 (stereo partly specified)
cytotoxicity at 10 µM, %: -104
//
MOLECULE: Cn1c(N)c2c(=O)n(C)c(-c3ccc(Cl)cc3Cl)cc2c(C#N)c1=O
cytotoxicity at 10 µM, %: -5.43
